tgt: Serine/threonine-protein kinase PLK1 (Homo sapiens) (UniProt P53350)
Sequence (P53350 whole entry, looked up, the tested form may be a part): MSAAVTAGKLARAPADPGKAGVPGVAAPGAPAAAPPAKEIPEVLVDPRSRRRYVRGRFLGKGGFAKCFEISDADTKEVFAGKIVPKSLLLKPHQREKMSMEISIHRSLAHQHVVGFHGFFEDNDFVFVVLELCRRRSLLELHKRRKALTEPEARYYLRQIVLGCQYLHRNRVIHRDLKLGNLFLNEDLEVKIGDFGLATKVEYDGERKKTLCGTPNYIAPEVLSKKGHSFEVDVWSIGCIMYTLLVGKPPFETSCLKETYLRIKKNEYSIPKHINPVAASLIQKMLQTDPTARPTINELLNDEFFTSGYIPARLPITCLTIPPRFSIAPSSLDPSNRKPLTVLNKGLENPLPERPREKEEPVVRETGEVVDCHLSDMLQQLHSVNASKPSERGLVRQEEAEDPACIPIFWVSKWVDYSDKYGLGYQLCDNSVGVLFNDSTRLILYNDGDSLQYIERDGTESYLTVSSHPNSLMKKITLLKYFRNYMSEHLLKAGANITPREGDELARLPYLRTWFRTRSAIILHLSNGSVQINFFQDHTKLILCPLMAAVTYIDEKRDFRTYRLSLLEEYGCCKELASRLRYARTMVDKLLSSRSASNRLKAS
test: qHTS for Inhibitors of PLK1-PDB (polo-like kinase 1 - polo-box domain): Primary Screen; note: series mostly up to about 57 µM; % is set by controls: 0 for no effect and ±100 for the full control effect; nearly all actives have a fitted effect of over 65% in size
condition-info: Plk1 PBD binding of FITC phosphopeptide, fluorescence polarization
Screen size: about 360,000 compounds; about 10,000 (2.8%) were called active. Roughly 4% stayed inconclusive and do not appear here. The sample as a whole holds a higher share of actives than the screen did.
Measured max response, negative = inhibition, listed per entry for reference.
observable: max response, negative = inhibition (%)

CC(C)N(C(=O)CN1CCN(S(=O)(=O)c2ccc(Br)s2)CC1)C(C)C; 1
Cc1ccnc(NS(=O)(=O)c2ccc(NC(=O)c3ccc(S(=O)(=O)N4CCOCC4)cc3)cc2)n1; -5.87
CC(OC(=O)C1CC(=O)N(Cc2ccccc2)C1)C(=O)Nc1ccccc1[N+](=O)[O-] (stereo unspecified); -3.81
COC(=O)Cc1ccc(OC2(C)CCN(Cc3ccc4c(c3)OCCO4)C2)cc1 (stereo unspecified); -7.87
COc1ccc(NC(=O)CCCOc2ccc(C(C)=O)cc2)cc1S(=O)(=O)N1CCCCC1; 2.7
CN(C)C(CNC(=O)c1cc(Br)c(Br)s1)c1ccco1 (stereo unspecified); -5.95
CC1(C(=O)NS(=O)(=O)c2cccc(F)c2)CCN1C(=O)c1cccc2ccccc12 (stereo unspecified); -0.565
c1ccc(-c2cc3c(NCC4COc5ccccc5O4)ncnc3s2)cc1 (stereo unspecified); -4.18
COc1ccc(CCNC(=O)Nc2ccc3c(c2)c(=O)n(C)n3C)cc1OC; -18.9
CN(CCc1ccccn1)C(=O)c1ccc(OC2CCN(Cc3ccccn3)CC2)cc1; 5.54
Cc1ccc(S(=O)(=O)N2CCN(CC(=O)N/N=C/c3ccc(Br)s3)CC2)cc1; -1.96
O=C(Nc1ccccc1-c1nnn(CC(=O)N2CCN(c3ccccc3)CC2)n1)c1cccs1; -6.64
CC(=NNC(N)=O)C1CC2CCC1CC2 (stereo unspecified); -7.72
COc1ccc(C(C(=O)Nc2c(C)cccc2C)N2CCN(c3ccc(C)cc3)CC2)cc1 (stereo unspecified); -1.1
CCN(CC)C(=O)C1=C(C)N(Cc2ccc(F)cc2)C(=O)C(CC(=O)NCc2cccc3ccccc23)C1 (stereo unspecified); -13.9
CCc1nc2c(OCc3cccc(OC)c3)cccn2c1N(C)C(=O)C(C)C; -12
CCOC(=O)c1sc(=NC(=O)c2ccc(Br)cc2)n(C)c1C; -3.76
CC1(C(=O)Nc2cccc3c2CCCC3)CCN1C(=O)CCc1ccc(Cl)cc1Cl (stereo unspecified); 0.165
C[C@@H]1CC2=C(C(=O)OC(C)(C)O2)[C@@H](C2CC2)O1; -2.71
COc1cccc(NC(=O)C2(C)CCN2Cc2ccccc2Cl)c1 (stereo unspecified); 4.24
Cc1ccc(Cn2cc(CN3CC(N4CCN(C)CC4)CS3(=O)=O)nn2)cc1 (stereo unspecified); -1.82
CCCNC(=O)C1(C)CCN(C(=O)c2ccccc2OC(F)(F)F)C1 (stereo unspecified); 1.6
CCSc1nc(O)c(C(c2cccc(OC)c2)c2c(O)nc(SCC)[nH]c2=O)c(=O)[nH]1; -21.7
CC1(C(=O)NS(=O)(=O)c2ccc(C#N)cc2)CCN1C(=O)CC1CCCC1 (stereo unspecified); 1.71
CCc1nc2c(OCC(N)=O)cccn2c1N(C)C(=O)c1ccc(OC)cc1; -13.5
CC(C)(O)C#Cc1ccc(CNC[C@H]2O[C@@H](n3cnc4c(=O)[nH]c(N)nc43)[C@H](O)[C@@H]2O)s1; 0.0305
CC1CN(C(=O)c2cccc(NS(=O)(=O)c3ccc(Br)cc3)c2)CC(C)O1 (stereo unspecified); -2.62
CCOC(=O)C1CCCN(C(=O)c2cc(-c3cccs3)oc2C)CC1 (stereo unspecified); -3.67
Cc1ccc(-c2nn(-c3ccccc3)cc2C(=O)Nc2cccc(S(=O)(=O)N3CCOCC3)c2)cc1; -5.73
CCCOc1ccc(F)cc1-c1cc(C(=O)Nc2ccc(F)c(Cl)c2)[nH]n1; 0.655
CCOC(=O)[C@]12CCCC=C1N(Cc1ccc3c(c1)OCO3)C(=O)[C@H](CC(=O)NCc1cccs1)C2; -29.1
COc1ccc(C(=O)Nc2c(Cl)cc(Cl)cc2C(=O)N2CCC(C)CC2)cc1; -14.4
O=C(OCC(=O)N1CCCCCC1)c1cccc(Cl)c1Cl; -1.69
CCCCn1nnnc1C1(C)CCC(=O)N1Cc1ccc(OC)c(OC)c1 (stereo unspecified); -1.18
C[C@H]1Cn2cnc(C(=O)N[C@@H](Cc3c[nH]c4ccccc34)C(=O)OC(C)(C)C)c2C(=O)N1; -0.575
CC(C)n1ncc2c(C(=O)N3CCN(Cc4cccs4)CC3)cc(C3CC3)nc21; -8.38
Cc1ccnc(NS(=O)(=O)c2ccc(NC(=O)c3oc4ccccc4c3C)cc2)n1; -5.87
Cn1cc(CNC(=O)c2ccc(OC3CCN(Cc4ccccn4)CC3)cc2)cn1; -5.74
Cn1nnnc1NCc1ccc(Cl)c(Cl)c1; -14
O=C(Nc1cccc([N+](=O)[O-])c1)Nn1cnnc1; -2.87
CC1(C(=O)Nc2cccc3c2CCCC3)CCN1C(=O)C1(c2ccccc2)CC1 (stereo unspecified); 2.66
